Assay: Bioavailability of levosimendan following buccal and intravenous administration in dogs (plasma concentration)
Format: in vivo, beagle dogs
Details: beagle, dog, plasma, other: buccal spray, 0.02 mg/kg, dog plasma, buccal spray 0.02 mg/kg, 60 min, Dog 2
Endpoint Name: concentration at 60 min (ng/mL)

[[record]]
compound = "CC1CC(=O)NN=C1c1ccc(NN=C(C#N)C#N)cc1 (single isomer, unassigned; (-))"
number = 22


====

Assay: Bioavailability of levosimendan following buccal and intravenous administration in dogs (plasma concentration)
Type: in vivo, beagle dogs
Details: beagle, dog, plasma, other: buccal spray, 0.02 mg/kg, dog plasma, buccal spray 0.02 mg/kg, 20 min, Dog 1
Endpoint Name: concentration at 20 min (ng/mL)

[[record]]
compound = "CC1CC(=O)NN=C1c1ccc(NN=C(C#N)C#N)cc1 (single isomer, unassigned; (-)) [Levosimendan]"
number = 24

